System: Pseudomonas aeruginosa GN10362
Assay: minimum inhibitory concentration (MIC)
Assay type: cell-based
Settings: Tables 2A, 2B
Consider the cut-off 50 µg/mL. If the recorded MIC is strictly smaller, the label is Satisfied; if not, the label is Not satisfied.

# count of solved cases: 7
molecule	experimentalTarget	labelClass
Cc1cc(SCC2=C(C(=O)O)N3C(=O)C(NC(=O)C(=NOC(C)(C)C(=O)O)c4csc(N)n4)[C@H]3SC2)n2nc(CO)nc2n1 (stereo partly drawn)	Pseudomonas aeruginosa GN10362	Satisfied
CON=C(C(=O)NC1C(=O)N2C(C(=O)O)=C(CSc3cc(CO)nc4nc(C)nn34)CSC12)c1csc(N)n1 (stereo not drawn)	Pseudomonas aeruginosa GN10362	Not satisfied
COCc1nc2nc(C)cc(SCC3=C(C(=O)O)N4C(=O)C(NC(=O)C(=NOC)c5csc(N)n5)C4SC3)n2n1 (stereo not drawn)	Pseudomonas aeruginosa GN10362	Not satisfied
Cc1nc2nc(CO)cc(SCC3=C(C(=O)[O-])N4C(=O)C(NC(=O)C(=NOC(C)(C)C(=O)NNC(=O)c5ccc(O)c(O)c5)c5csc(N)n5)[C@H]4SC3)n2n1.[Na+] (stereo partly drawn)	Pseudomonas aeruginosa GN10362	Satisfied
Cc1cc(SCC2=C(C(=O)O)N3C(=O)C(NC(=O)C(=NOC(C)(C)C(=O)NN)c4csc(N)n4)C3SC2)n2nc(CO)nc2n1 (stereo not drawn)	Pseudomonas aeruginosa GN10362	Satisfied
COCc1nc2nc(C)cc(SCC3=C(C(=O)O)N4C(=O)C(NC(=O)C(=NOC(C)(C)C(=O)NNC(=O)c5ccc(O)c(O)c5)c5csc(N)n5)C4SC3)n2n1 (stereo not drawn)	Pseudomonas aeruginosa GN10362	Satisfied
CON=C(C(=O)NC1C(=O)N2C(C(=O)O)=C(CSc3cc(C(=O)O)nc4nc(CO)nn34)CSC12)c1csc(N)n1 (stereo not drawn)	Pseudomonas aeruginosa GN10362	Not satisfied

Turning now to a further molecule:
[ask] Given Cc1cc(SCC2=C(C(=O)[O-])N3C(=O)C(NC(=O)C(=NOC(C)(C)C(=O)NN=Cc4ccc(O)c(O)c4)c4csc(N)n4)[C@H]3SC2)n2nc(CO)nc2n1.[Na+] (stereo partly drawn) , is recorded MIC strictly lower than 50 µg/mL?
[reply] Satisfied
